What folding enthalpy was measured for each of the following?
test: folding enthalpy; higher = less favourable; fluorescence melt of hairpins on a sequencing array, two-state fit; details: sodium 0.088 M
Your answer should be a plain number; it is taken to be in kcal/mol.

[Q] Give the reported folding enthalpy for this sequence. GCATTAGGAAACTGATGC ((((.((....)).))))
[A] -36.7

[Q] Give the reported folding enthalpy for this sequence. GTCAGACGAAAGTCCGAC (((.(((....))).)))
[A] -26.5

[Q] Give the reported folding enthalpy for this sequence. GACACGGGAAACCGCATC ((..(((....)))..))
[A] -11.1

[Q] Give the reported folding enthalpy for this sequence. GTCTGTCGAAAGACTGAC (((.(((....))).)))
[A] -39.4

[Q] Give the reported folding enthalpy for this sequence. GGGTCCGGAAACGGACTC (.(((((....))))).)
[A] -15.2

[Q] Give the reported folding enthalpy for this sequence. GGCACCGAAAGGTAGCC ((((((....))).)))
[A] -36.9

[Q] Give the reported folding enthalpy for this sequence. GATCTCGCTTGAGATC ((((((....))))))
[A] -36.8

[Q] Give the reported folding enthalpy for this sequence. GATCGATAATTCGATC ((((((....))))))
[A] -39.6

[Q] Give the reported folding enthalpy for this sequence. GATCGCAGTGCGATC ((((((...))))))
[A] -30.1

[Q] Give the reported folding enthalpy for this sequence. GAGGGTGCGAAAGCACTC (((..(((....))))))
[A] -8.61

[Q] Give the reported folding enthalpy for this sequence. GCGTACCTACGC ((((....))))
[A] -29.7

[Q] Give the reported folding enthalpy for this sequence. GTCCACGAAAGTGTAGAC ((((((....)))..)))
[A] -20.1

[Q] Give the reported folding enthalpy for this sequence. CGACGCCGGAAACGGTCG (((..(((....))))))
[A] -18.3

[Q] Give the reported folding enthalpy for this sequence. GATCGGAGATCCGATC ((((((....))))))
[A] -27.6

[Q] Give the reported folding enthalpy for this sequence. GGAATCGAAAGATGTCC ((((((....))).)))
[A] -15.6

[Q] Give the reported folding enthalpy for this sequence. CGCAACGGAAACGTAGCG (((.(((....))).)))
[A] -38

[Q] Give the reported folding enthalpy for this sequence. GATCGGCAGTCCGATC ((((((....))))))
[A] -37.7

[Q] Give the reported folding enthalpy for this sequence. GCTTCTGGAAACAGAAAC (.(((((....))))).)
[A] -17.7

[Q] Give the reported folding enthalpy for this sequence. GTCGTCGAAAGACTCGAC ((((((....)))..)))
[A] -14.9

[Q] Give the reported folding enthalpy for this sequence. CGGAGCGGAAACGCGCCG (((.(((....))).)))
[A] -27

[Q] Give the reported folding enthalpy for this sequence. GTGGACCGAAAGGTTCAC (((.(((....))).)))
[A] -36.7

[Q] Give the reported folding enthalpy for this sequence. GATCCTGGCCAGGATC ((((((....))))))
[A] -47.6

[Q] Give the reported folding enthalpy for this sequence. GATCCTCAAAGGATC ((((((...))))))
[A] -32.1

[Q] Give the reported folding enthalpy for this sequence. GTTTAAGGAAACTTAAGC (.(((((....))))).)
[A] -13.9

[Q] Give the reported folding enthalpy for this sequence. GTAGGTGGAAACATCTAC ((((.((....)).))))
[A] -31.3

[Q] Give the reported folding enthalpy for this sequence. GCAATCGAAAGATATTGC ((((((....)))..)))
[A] -18.7

[Q] Give the reported folding enthalpy for this sequence. GTGATAACGAAAGTTCAC (((..(((....))))))
[A] -15.1

[Q] Give the reported folding enthalpy for this sequence. GGACTCGAAAGAGTGTCC ((((((....)))..)))
[A] -16.9

[Q] Give the reported folding enthalpy for this sequence. GCGATCGAAAGATAACGC ((((((....)))..)))
[A] -26.2

[Q] Give the reported folding enthalpy for this sequence. GGCAGTCCGAAAGGAGCC (((..(((....))))))
[A] -22.1

[Q] Give the reported folding enthalpy for this sequence. GCCTACGGAAACGTAAGC ((.((((....)))).))
[A] -19.8

[Q] Give the reported folding enthalpy for this sequence. CGACCGGAAACGGCCTCG ((((((....)))..)))
[A] -11.9

[Q] Give the reported folding enthalpy for this sequence. GTCTGCTCGAAAGAGGAC (((..(((....))))))
[A] -18.1

[Q] Give the reported folding enthalpy for this sequence. GTTAGCGAAAGCTACAAC ((((((....)))..)))
[A] -8.63

[Q] Give the reported folding enthalpy for this sequence. GCAGGGCGAAAGCGCGGC ((.(.((....)).).))
[A] -29.2

[Q] Give the reported folding enthalpy for this sequence. GCAGACCGAAAGGTATGC (((.(((....))).)))
[A] -39.5

[Q] Give the reported folding enthalpy for this sequence. GATCCTGGTAAGGATC ((((((....))))))
[A] -41.8

[Q] Give the reported folding enthalpy for this sequence. GATCTTCGGAAAGATC ((((((....))))))
[A] -29.1

[Q] Give the reported folding enthalpy for this sequence. GTCACCGAAAGGTTAGAC ((((((....)))..)))
[A] -17.1

[Q] Give the reported folding enthalpy for this sequence. GATCTCTGCAGAGATC ((((((....))))))
[A] -41.6

[Q] Give the reported folding enthalpy for this sequence. AGAAACCGAAAGGCTTCT ((((.((....)).))))
[A] -28.4

[Q] Give the reported folding enthalpy for this sequence. GCAACCGGAAACAGTTGC (((((.(....).)))))
[A] -31.7
